System: Rattus norvegicus
Experiment: Antiinflammatory activity in Wistar Albino rat assessed as inhibition of carrageenan-induced paw oedema at 50 mg/kg, ip after 2 hrs
Type: functional
Conditions: route intraperitoneal
Here the recorded inhibition in vivo at 50 mg/kg is given for each entry.
MEASUREMENT LABEL: inhibition in vivo at 50 mg/kg (%)

[[record]]
compound_structure = "COc1nc2c(c(-c3ccccc3)c1C#N)CCSc1ccccc1-2"
unit_label = "%"
numeric_result = 61

[[record]]
compound_structure = "COc1nc2c(c(-c3cccs3)c1C#N)CCSc1ccccc1-2"
unit_label = "%"
numeric_result = 60.1

[[record]]
compound_structure = "COc1ccc(-c2c(C#N)c(OC)nc3c2CCSc2ccccc2-3)cc1"
unit_label = "%"
numeric_result = 81.9

[[record]]
compound_structure = "COc1ccc(-c2c3c([nH]c(=S)c2C#N)-c2ccccc2SCC3)cc1"
unit_label = "%"
numeric_result = 68.3

[[record]]
compound_structure = "CCOc1nc2c(c(-c3ccc(Cl)cc3)c1C#N)CCSc1ccccc1-2"
unit_label = "%"
numeric_result = 87.7

[[record]]
compound_structure = "COc1nc2c(c(-c3ccc(Cl)cc3)c1C#N)CCSc1ccccc1-2"
unit_label = "%"
numeric_result = 74.7

